Tested on: Staphylococcus aureus
experimental details: Antibacterial activity against methicillin-resistant Staphylococcus aureus clinical isolate M-12 assessed as inhibition of visible growth incubated for 16 to 18 hrs by CLSI method
Assay type: functional
run conditions: time 16-18 hrs, read-out: MIC100
Condition met if MIC is below 2 µg/mL. Condition not met if not; exact matches included in Condition not met.

Worked set:
>>> label_value("C=CCc1ccc(OCCC[N+](C)(C)CC(=O)NCCCC)c(-c2ccc(OCCC[N+](C)(C)CC(=O)NCCCC)c(CC=C)c2)c1.[Br-].[Br-]")
"Condition met"
>>> label_value("C=CCc1ccc(OCCC[N+](C)(C)CC(=O)N(CCCC)CCCC)c(-c2ccc(OCCC[N+](C)(C)CC(=O)N(CCCC)CCCC)c(CC=C)c2)c1.[Br-].[Br-]")
"Condition not met"
>>> label_value("C=CCc1ccc(OCCCC[N+](C)(C)CC(=O)N(CCCC)CCCC)c(-c2ccc(OCCCC[N+](C)(C)CC(=O)N(CCCC)CCCC)c(CC=C)c2)c1.[Br-].[Br-]")
"Condition not met"
>>> label_value("C=CCc1ccc(OCCC[N+](C)(C)CC(=O)NCCCCCC)c(-c2ccc(OCCC[N+](C)(C)CC(=O)NCCCCCC)c(CC=C)c2)c1.[Br-].[Br-]")
"Condition not met"
>>> label_value("C=CCc1ccc(O)c(-c2cc(CC=C)ccc2OCCCC[N+](C)(C)CC(=O)NCCCCCC)c1.[Br-]")
"Condition not met"
>>> label_value("C=CCc1ccc(OCCCC[N+](C)(C)CC(=O)NCC)c(-c2ccc(OCCCC[N+](C)(C)CC(=O)NCC)c(CC=C)c2)c1.[Br-].[Br-]")
"Condition not met"

Prompt: # strict comparison: is reported MIC < 2 µg/mL? input = C=CCc1ccc(OCC[N+](C)(C)CC(=O)NCCCCCC)c(-c2ccc(OCC[N+](C)(C)CC(=O)NCCCCCC)c(CC=C)c2)c1.[Br-].[Br-]
Response: Condition not met

Prompt: I'd appreciate it if you could check whether C=CCc1ccc(O)c(-c2cc(CC=C)ccc2OCCC[N+](C)(C)CC(=O)N(CCCC)CCCC)c1.[Br-] has MIC smaller than 2 µg/mL.
Response: Condition not met

Prompt: hey, is MIC for C[C@H]1COc2c(N3CCN(C)CC3)c(F)cc3c(=O)c(C(=O)O)cn1c23.C[C@H]1COc2c(N3CCN(C)CC3)c(F)cc3c(=O)c(C(=O)O)cn1c23.O lower than 2 µg/mL or not?
Response: Condition met

###

Kindly supply the reported MIC values for the records listed here.
Tested on: Staphylococcus aureus
experimental details: Antibacterial activity against methicillin-resistant Staphylococcus aureus clinical isolate M-12 assessed as inhibition of visible growth incubated for 16 to 18 hrs by CLSI method
Assay type: functional
run conditions: time 16-18 hrs, read-out: MIC100
One number for each entry, in µg/mL.

Previously resolved entries follow.
>>> measured("C=CCc1ccc(O)c(-c2cc(CC=C)ccc2OCC[N+](C)(C)CC(=O)N(CCCC)CCCC)c1.[Br-]")
4
>>> measured("C=CCc1ccc(OCC[N+](C)(C)CC(=O)NCCCC)c(-c2ccc(OCC[N+](C)(C)CC(=O)NCCCC)c(CC=C)c2)c1.[Br-].[Br-]")
4
>>> measured("C=CCc1ccc(O)c(-c2cc(CC=C)ccc2OCCC[N+](C)(C)CC(=O)NCCCC)c1.[Br-]")
4
>>> measured("C=CCc1ccc(O)c(-c2cc(CC=C)ccc2OCC[N+](C)(C)CC(=O)NCCCC)c1.[Br-]")
8
>>> measured("C=CCc1ccc(OCCCC[N+](C)(C)CC(=O)NCCCCCC)c(-c2ccc(OCCCC[N+](C)(C)CC(=O)NCCCCCC)c(CC=C)c2)c1.[Br-].[Br-]")
2

I would be grateful if you could provide MIC for each of the following entries.
1. C=CCc1ccc(OCCC[N+](C)(C)CC(=O)NCC)c(-c2ccc(OCCC[N+](C)(C)CC(=O)NCC)c(CC=C)c2)c1.[Br-].[Br-]
2. C=CCc1ccc(OCCCC[N+](C)(C)CC(=O)NCCC)c(-c2ccc(OCCCC[N+](C)(C)CC(=O)NCCC)c(CC=C)c2)c1.[Br-].[Br-]

Response:
1: 4; 2: 4
